meta.source: patent US5580982A

Target: MAO-B (Rattus norvegicus, UniProt P19643)
Construct: the whole brain without cerebellum was dissected rapidly and frozen on dry ice
Sequence (P19643 whole entry): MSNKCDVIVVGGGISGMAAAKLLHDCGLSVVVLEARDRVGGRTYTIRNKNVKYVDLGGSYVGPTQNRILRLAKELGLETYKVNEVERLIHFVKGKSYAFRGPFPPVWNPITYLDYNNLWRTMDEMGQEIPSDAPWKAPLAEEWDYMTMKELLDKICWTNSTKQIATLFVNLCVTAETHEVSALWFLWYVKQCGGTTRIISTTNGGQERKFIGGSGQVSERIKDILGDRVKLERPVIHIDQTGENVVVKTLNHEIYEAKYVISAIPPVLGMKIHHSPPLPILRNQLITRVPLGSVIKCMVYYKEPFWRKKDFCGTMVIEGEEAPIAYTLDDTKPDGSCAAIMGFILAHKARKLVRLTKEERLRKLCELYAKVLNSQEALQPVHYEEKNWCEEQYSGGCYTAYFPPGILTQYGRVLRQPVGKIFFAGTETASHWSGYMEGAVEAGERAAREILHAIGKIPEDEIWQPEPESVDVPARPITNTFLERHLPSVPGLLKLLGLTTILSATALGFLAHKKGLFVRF
Test: Inhibition of Type B monoamine oxidase activity in rat brain synaptosomes
Settings: substrate [^14 C]-PEA 200 μM; read-out: Inhibitory Concentration - IC50 MAO-B
REPORTED_PROPERTY: pIC50
In simple prose, pIC50 is minus the logarithm base ten of a concentration in moles per litre.

QUERY: Which pIC50 is reported for this molecule? COc1ccc2c(N3CCN(c4ccncc4)CC3)noc2c1
RESULT: 4.35

* * *

Molecular target: Brain AChE (Rattus norvegicus, UniProt P37136)
Construct: corpora striata dissected free, weighed and homogenized in 19 volumes; from tissue; host or cells: corpora striata of male Wistar rats, whole homogenate
Sequence (P37136 32-614): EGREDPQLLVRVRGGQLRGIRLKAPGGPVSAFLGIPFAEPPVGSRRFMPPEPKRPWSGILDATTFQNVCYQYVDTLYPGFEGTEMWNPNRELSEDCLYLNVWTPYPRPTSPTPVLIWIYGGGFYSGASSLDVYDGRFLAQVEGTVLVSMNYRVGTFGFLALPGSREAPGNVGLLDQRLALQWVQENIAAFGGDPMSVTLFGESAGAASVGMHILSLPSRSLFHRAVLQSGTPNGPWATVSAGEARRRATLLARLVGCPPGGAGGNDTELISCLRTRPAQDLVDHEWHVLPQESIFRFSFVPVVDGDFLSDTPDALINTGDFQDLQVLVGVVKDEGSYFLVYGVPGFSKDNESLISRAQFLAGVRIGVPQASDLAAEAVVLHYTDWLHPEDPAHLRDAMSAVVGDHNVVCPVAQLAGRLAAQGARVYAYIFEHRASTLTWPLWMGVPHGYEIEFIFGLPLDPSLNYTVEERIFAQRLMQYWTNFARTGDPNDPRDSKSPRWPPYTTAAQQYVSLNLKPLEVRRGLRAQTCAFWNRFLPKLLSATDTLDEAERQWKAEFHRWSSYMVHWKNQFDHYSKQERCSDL
Assay: In vitro inhibition of acetylcholinesterase activity in rat striatum
Assay type: biochemical
Settings: rat striatum homogenate, pH 7.2; read-out: Inhibitory Concentration IC50 Brain AChE
Structures can show the parent of a compound that is named as a salt.
REPORTED_PROPERTY: pIC50
In simple prose, pIC50 is minus the logarithm base ten of a concentration in moles per litre.

> print(dat)
                                compound  reported.property  assay.result
1  COc1ccc2c(N3CCN(c4ccncc4)CC3)noc2c1Br              pIC50          4.85

Next:
QUERY: Which pIC50 is reported for this compound? COc1ccc2c(N(C)CCC3CCN(Cc4ccccc4)CC3)noc2c1 [sesquihydrochloride]
RESULT: 5.40

* * *

Target: MAO-A (Rattus norvegicus)
Construct: the whole brain without cerebellum was dissected rapidly and frozen on dry ice
Sequence (P21396 whole entry): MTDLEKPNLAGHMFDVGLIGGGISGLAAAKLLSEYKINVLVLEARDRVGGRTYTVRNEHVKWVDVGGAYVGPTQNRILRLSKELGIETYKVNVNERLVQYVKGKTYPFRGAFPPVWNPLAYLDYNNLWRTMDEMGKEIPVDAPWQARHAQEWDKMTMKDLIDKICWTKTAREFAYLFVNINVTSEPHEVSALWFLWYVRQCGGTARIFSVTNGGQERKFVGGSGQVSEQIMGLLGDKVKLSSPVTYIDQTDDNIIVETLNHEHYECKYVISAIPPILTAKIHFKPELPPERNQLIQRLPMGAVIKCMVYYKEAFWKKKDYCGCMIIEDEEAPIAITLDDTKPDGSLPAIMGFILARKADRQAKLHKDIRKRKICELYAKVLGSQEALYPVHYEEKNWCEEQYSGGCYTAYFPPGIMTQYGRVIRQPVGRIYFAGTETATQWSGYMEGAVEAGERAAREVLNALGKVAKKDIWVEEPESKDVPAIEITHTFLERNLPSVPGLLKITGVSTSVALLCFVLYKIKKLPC
Assay: Inhibition of Type A monoamine oxidase activity in rat brain synaptosomes
Conditions: substrate [^3 H]-5HT 200 μM; read-out: Inhibitory Concentration - IC50 MAO-A
REPORTED_PROPERTY: pIC50
In simple prose, pIC50 is minus the logarithm base ten of a concentration in moles per litre.

> print(dat)
                 compound  reported.property  assay.result
1  CNCCNc1noc2cc(OC)ccc12              pIC50          4.60

QUERY: Which pIC50 is reported for this compound? COc1ccc2c(N(C)CCN3CCOCC3)noc2c1
RESULT: 4.89

QUERY: Which pIC50 is reported for this compound? COc1ccc2c(N3CCN(c4ccncc4)CC3)noc2c1
RESULT: 5.00

QUERY: Which pIC50 is reported for this compound? COc1cc(Br)c2oc(C3CCNCC3)cc2c1 [Brofaromine, reference compound]
RESULT: 6.74
